# PROCEDURE_SUMMARY: P. aeruginosa biofilm formation inhibitors, primary screen, PAO1 strain, BacTiter-Glo luminescence, LB-PBS (AID 1144)
# EXPERIMENTAL_SETUP: 12 h, higher = more signal
Tick MET if z-score is -0.1 or greater. Tick NOT MET if z-score is less than -0.1.

>>> classification("C[C@H]1NC(=O)C([C@@H](C)OCc2ccccc2)NC(=O)[C@@]23C(=O)N[C@@H](Cc4ccccc4)C2[C@H](C)[C@@]2(C)O[C@H]2C3/C=C/C/C=C\\CNC1=O (some centres undefined)")
"MET"
>>> classification("COCCOC(=O)N1C(=O)[C@@]2(c3ccccc31)[C@H](C(=O)N1CCCCCCC1)[C@H]1C(=O)O[C@H](c3ccccc3)[C@H](c3ccccc3)N1[C@@H]2c1ccc(O)cc1")
"NOT MET"
>>> classification("COc1cc(OC)c(C(O)C2C=CC3C(=O)N(c4ccccc4)C(=O)C3N2Nc2ccccc2F)cc1Br (centres undefined)")
"NOT MET"
>>> classification("C=CCC(OC(C)=O)[C@@H]1[C@@H](N(Cc2cc3ccccc3o2)C(=O)Cc2ccc(OC)cc2)c2cc(OCCCO)ccc2N1C(=O)Cc1ccc(OC)cc1 (some centres undefined)")
"MET"
>>> classification("O=C1O[C@H](c2ccccc2)[C@H](c2ccccc2)N2[C@H]1[C@@H](C(=O)N1CCN(c3ncccn3)CC1)[C@]1(C(=O)Nc3ccccc31)[C@H]2c1ccc(O)cc1")
"NOT MET"

**Query** Could you tell me if the measured z-score of COCCn1c(C(=O)N2CCCC2)cc2c1C[C@H]1CN(C(=O)c3ccccc3)[C@@](Cc3ccccc3)(C(=O)OC)[C@@H]21 reaches -0.1 or more?
**Result** NOT MET
